Give growth inhibition for every item shown.
- method: NCI Yeast Anticancer Drug Screen. Data for the rad50 strain (AID 155);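 also: 0% = growth of vehicle-only cultures of the same strain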
- condition_context: S. cerevisiae rad50 strain growth inhibition; at 50.0 µM; hits give high values
Compounds without any hit were thinned out: in the full panel of roughly 79,000, 15% have a hit. The source made the active and inactive calls. Rule as the data show it: active = growth inhibition above about 70%; inactive = the rest. Where a SMILES comes first, the peptide text is derived from it. Bridges are numbered along the chain shown (N, C = ends). [ ]: non-standard residue; d: D form. The star is where a group is joined. PhAc = O=C(Cc1ccccc1)*

Here are 5 compounds together with their reported answers.
Cc1nc(-c2ccc([N+](=O)[O-])cc2)cn2c1nc1ccccc12 :: -26.9% (inactive)
CCCCCCCCCCOC(=O)c1ccccc1O :: -4.95% (inactive)
O=C(Cc1ccccc1)N[C@@H]1COC(=O)[C@@H]2CCCN2C(=O)[C@@H]2CCCN2C1=O (PhAc-[dS]-Pro-Pro; ester 1-C) :: -33.4% (inactive)
O=[N+]([O-])c1ccc(C2CC(c3ccccc3)=NN2c2ccccc2)cc1 (stereo unspecified) :: 7.65% (inactive)
O=c1c2ccccc2nnn1O :: 12.8% (inactive)

Ask: I'd like to know its growth inhibition. The compound in question is O=c1c(Cc2ccccc2)coc2ccccc12
Reply: 30.6% (inactive)

----------
- method: NCI Yeast Anticancer Drug Screen. Data for the mec2-1 strain (AID 157)
- condition_context: S. cerevisiae mec2-1 strain, at 50.0 µM, hits give high values
- Procedure: Growth inhibition of yeast strains with defined genetic alterations is measured as a screen for potential anti-cancer activity. Selected strains with alterations in DNA damage repair or cell cycle control were exposed to compounds and growth inhibition was measured relative to vehicle treated controls. The strain used in this assay is mec2-1
The panel holds about 79,000 compounds, 15% with a hit somewhere; the sample as a whole holds those more often.
Give growth inhibition for every item shown.
Answers are plain numbers, in %.

CCCCCCCCCC/C=C/c1c(C)[nH]c2ccccc2c1=O :: 8.7
COc1cc2cc(-c3ccc(Cl)c(Cl)c3)[n+](C)cc2cc1OC :: 20.1
Nc1ncc(Cl)cn1 :: -21.4
C1CCC(C2CCCC2)CC1 :: -0.35
Cc1cccnc1N :: -31.6
COc1ccccc1NC(=O)C1=C(C)NC(C)=C(C(=O)Nc2ccccc2OC)C1c1ccccc1Cl :: -4.4

Working through the 3 compounds below one at a time, give growth inhibition for each.
1. O=C1C(NS(=O)(=O)c2ccccc2)=C(N(Cc2ccccc2)Cc2ccccc2)C(=O)c2ccccc21
2. NC(=O)c1[nH]c(N=Nc2ccc(S(N)(=O)=O)cc2)nc1N
3. CCCCCOC(=O)Nc1ccc(OCC)cc1

Reply:
1: 7.4; 2: 13.6; 3: -4.95

----------
- method: NCI Yeast Anticancer Drug Screen. Data for the rad50 strain (AID 155);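 also: 0% = growth of vehicle-only cultures of the same strain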
- condition_context: S. cerevisiae rad50 strain growth inhibition; at 50.0 µM; hits give high values
This is part of a sample that, as a whole, favours compounds with a hit. Of some 79,000 tested, about 15% had one in any assay. Active and inactive are the calls of the source. Rule as the data show it: active = growth inhibition above about 70%; inactive = the rest.
Give growth inhibition for every item shown.

Here are 3 molecules together with their reported answers.
Cc1cccc(CC(CC(=O)O)C(=O)O)c1 (stereo not drawn) :: 4.85% (inactive)
Cc1ccc2cccc(C)c2n1 :: -14.9% (inactive)
FC(F)(F)c1cc(Br)c2ccc3ncccc3c2n1 :: 6.5% (inactive)

Working through the 7 molecules below one at a time, give growth inhibition for each.
1. CCSC(C(O)C(O)C(O)C(O)CO)n1cc(C)c(=O)[nH]c1=O (stereo not drawn)
2. O=c1c(O)c(-c2ccccc2)oc2cc(O)cc(O)c12
3. O=c1[nH]cnc2c1ncn2CCCCc1ccccc1
4. NCCc1ccc(O)c(O)c1
5. Cc1nc2scc(C)c2c(=S)[nH]1
6. CCN(c1ccccc1)c1ncnc2nc[nH]c12
7. CC(=O)OC1C(=O)C2C(CC=C3CC(O)CC(O)C32C)C2CCC(C(C)C3CC(C)C(C)(C)O3)C12C (stereo not drawn)

Reply:
3% (inactive)
24.5% (inactive)
8.4% (inactive)
-4.4% (inactive)
-0.85% (inactive)
6.75% (inactive)
-31.3% (inactive)

Working through the 3 molecules below one at a time, give growth inhibition for each.
1. Nc1ccc(C(=O)Nc2ccccn2)cc1
2. COC(=O)CCNC(=O)c1ccccc1
3. COc1ccc(C(O)C(NCCO)c2ccccc2)cc1 (stereo not drawn)

Reply:
1. -9.1% (inactive)
2. 3.5% (inactive)
3. -1.3% (inactive)

----------
Give growth inhibition for every item shown.
- method: NCI Yeast Anticancer Drug Screen. Data for the cln2 rad14 strain (AID 165);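 also: 0% = growth equal to vehicle treated cultures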
- condition_context: S. cerevisiae cln2 rad14 strain, at 50.0 µM, hits give high values
Compounds without any hit were thinned out: in the full panel of roughly 79,000, 15% have a hit.
One number for each entry, in %.

Here are 5 compounds together with their reported answers.
COc1ccc(-c2c3c(nc4nc(SC)nc(SC)c24)CCCC3)cc1OC :: 1.15
O=[N+]([O-])C(=C1NCCN1)C(Cl)=C(Cl)Cl :: -18.6
CCOC(=O)C(C(=O)OCC)C(C(=O)OCC)C(=O)OCC :: -9.65
O=C(Nc1ccc(Nc2ccc(NC(=O)c3ccccc3)c3c2C(=O)c2ccccc2C3=O)c2c1C(=O)c1ccccc1C2=O)c1ccccc1 :: 6.1
O=CNCCc1ccc2c(c1)[nH]c1ccccc12 :: -11.3

Working through the 8 compounds below one at a time, give growth inhibition for each.
1. S=C1SCN(c2ccc(Br)cc2)CN1c1ccc2[nH]c(=S)sc2c1
2. OC1c2ccccc2-c2ccccc21
3. Cc1ccc(S(=O)(=O)ON/N=c2\ccn(C)c3ccccc23)cc1
4. CC(=O)Nc1c(C)cc(C)cc1[N+](=O)[O-]
5. Cc1c2c(=O)oc3ccc(Cl)cc3c2nn1-c1ccccc1
6. CCOC(=O)c1ccc(-n2cnc(-c3ccc([N+](=O)[O-])cc3)c2)cc1
7. O=C1C2=C(c3ccccc31)C(c1ccccc1Cl)N1C(=O)CCSC1=N2 (stereo not drawn)
8. CC(C)=C/C(CC(O)(C(F)(F)F)C(F)(F)F)=N\O

Reply:
[0.45, -22.3, -4.85, 2.65, -7.8, -7.15, 8.85, 18.4]

Working through the 6 compounds below one at a time, give growth inhibition for each.
1. CC1(C)CN(CCC#N)C(c2ccc([N+](=O)[O-])cc2)O1 (stereo not drawn)
2. COc1ccc(C(O)C(CN(C)C)CN(C)C)cc1 (stereo not drawn)
3. COc1ccc(/C=C/c2cnc3ccccc3n2)cc1OC
4. COc1ccc(C23CCC(=O)N2CCS3)cc1 (stereo not drawn)
5. CC1=C(c2cc(C(=O)Nc3ccc(Cl)cc3)nc(=S)[nH]2)Sc2ccccc2N1
6. COc1cc(/C=C(\C#N)C(N)=C(C#N)C#N)cc(O)c1O

Reply:
1. -9.4
2. 8.15
3. 25.8
4. 8.15
5. -1.45
6. 0.65

----------
Give growth inhibition for every item shown.
- method: NCI Yeast Anticancer Drug Screen. Data for the cln2 rad14 strain (AID 165);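 also: 0% = growth equal to vehicle treated cultures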
- condition_context: S. cerevisiae cln2 rad14 strain, at 50.0 µM, hits give high values
Compounds without any hit were thinned out: in the full panel of roughly 79,000, 15% have a hit.
Give bare numbers, in %.

Here are 2 molecules together with their reported answers.
Cc1nnnn1-c1ccc([N+](=O)[O-])cc1 :: -17.6
CC(=O)c1c[nH]cc1CO :: 11.3

Working through the 4 molecules below one at a time, give growth inhibition for each.
1. COc1ccc(C2(C(OC)OC)NC(=O)NC2=O)cc1 (stereo unspecified)
2. O=C(Nc1nc(C23CC4CC(CC(C4)C2)C3)cs1)c1cc2ccccc2oc1=O
3. COc1cccc(/C=C2\SC(=S)N(/C=C3\C(=O)Oc4ccccc4C3=O)C2=O)c1O
4. CC(C)CCC(C)(C)O

Reply:
1. 35.4
2. -30.4
3. 50.6
4. -20.7

----------
- method: NCI Yeast Anticancer Drug Screen. Data for the mlh1 rad18 strain (AID 175)
- condition_context: S. cerevisiae mlh1 rad18 strain growth inhibition; at 50.0 µM; hits give high values
Compounds without any hit were thinned out: in the full panel of roughly 79,000, 15% have a hit.
measured_parameter: growth inhibition (%)
Numbers only, in %.

C[n+]1ccc(/C=C/c2ccc(O)c3ncccc23)c2cccc(O)c21 :: 44.9
COC(=O)C(Cc1ccccc1)NC(=O)Cn1ccnc1[N+](=O)[O-] (stereo not given) :: -3.3
Nc1ncnc2c1ncn2-c1ccc(N(CCO)CCO)cc1 :: 8.35
COc1cc(-c2cc(-c3cc([N+](=O)[O-])c(/C=N/NC(=O)c4ccncc4)o3)ccc2OC)ccc1C :: 8.3

The record that follows has no growth inhibition shown yet.
Ask: I'd like to know its growth inhibition. The compound in question is Cc1ccc(S(=O)(=O)OCC2(COS(=O)(=O)c3ccc(C)cc3)CCC2)cc1
Reply: -15

----------
- method: NCI Yeast Anticancer Drug Screen. Data for the sgs1 mgt1 strain (AID 161);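 also: 0% = growth of cultures given vehicle only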
- condition_context: S. cerevisiae sgs1 mgt1 strain, at 50.0 µM, hits give high values
About 79,000 compounds went through this panel and 15% of them were active in at least one assay; those are over-represented in the sample as a whole.
Give growth inhibition for every item shown.
Numbers only, in %.

Here are 3 molecules together with their reported answers.
Nc1ncnc2c1ncn2CCCCCO :: 13.7
CC(=O)Nc1ccc(N=C2c3ccccc3-c3ccc([N+](=O)[O-])cc32)cc1 :: 11.2
C#CCNC(=O)NCCCC(NC(C)=O)C(=O)NCc1ccccc1 (stereo unspecified) :: -4.65

Working through the 3 molecules below one at a time, give growth inhibition for each.
1. O=c1cc(Nc2ccc(Cl)cc2)[nH]c(=O)[nH]1
2. CCCCCCCCCCCCCCCCOc1ccc(OCCCCCCCCCCCCCCC)cc1
3. C=C(C)C1CC/C(C)=C/CC[C@]2(C)O[C@H]2CC/C(COC(C)=O)=C\[C@@H]1O (stereo partly specified)

Reply:
1. -5.55
2. 31.6
3. 2.2
